Test: yeast display, Sf9 membrane polyspecificity reagent, FACS + sequencing; frameworks hold sequencing errors
recorded metric: polyreactivity (PSR sort gate)

| sequence text | observed |
| --- | --- |
| QVQLVESGGGLVQAGGSLRLSCAASGLTFAYYDMGWYRQAPGKERELVAAITSGGTTNYADSVKGRFTISRDNAKNTVYLQMNSLKPEDTAVYYCYADYYSRIVGVRIYDYWGQGTQVTVSS | low polyreactivity |
| QVQLVESGGGLVQAGGSLRLSCAASGSIFGANTMGWYRQAPGKERELVAGITSGARTYYADSVKGRFTISRDNAKNTVYLQMNSLKPEDTAVYYCAAKYAWRRYGYWGQGTQVTVSS | high polyreactivity |
| QVQLVESGGGLVQAGGSLRLSCAASGLIFIVYAMGWSRQAPGKERELVAAISWSGGSTYYADSVKGRFTISRDNAKNTVYLQMNSLKPEDTAVYYCAAPSSVRGKVISADYGYWGQGTQVTVSS | high polyreactivity |
| QVQLVESGGGLVQAGGSLRLSCAASGSIFPVYAMGWYRQAPGKERELVAAISLRAGNTYYADSVKGRFTISRDNAKNTVYLQMNSLKPEDTAVYYCAVEWFRSTTIFDYWGQGTQVTVSS | high polyreactivity |
| QVQLEESGGGLVQAGGSLRLSCAASGSTFIVNAMGWYRQAPGKERELVATISGGDSTDYADSVKGRFTISRDNAKNTVYLQMKSLKPEDTAVYYCNAEVHQYYFTPYDYWGQGTQVTFSS | low polyreactivity |
| QVHVVESGGGLVQAGGSLRLSCAASGSSFYHYAMGWYRQAPGKERELVAAISGSGGSTYYADSVKGRFTISRDNAKNTVYLQMNSLKPEDTAVYYCAADTSRYHYTRYFFDSDYWGQGTQVTVSS | low polyreactivity |
| QVQLVESGGGLVLAGGSLRLSCAASGRIFRWYAMGWYRQAPGKERELDATISSTGGSTYYADSVKGRFTISRDNAKNTVYLQMNSLKPEDTAVYYCNAVVYGIFLYAWYDYWGQVTQVTVSS | low polyreactivity |
| QVQLVESGGGLVQAGGSLRLSCAASGSTFWYNAMGWYRQAPGKERELVAAISQSGGRTYYADSVKGRFTISRDNAKNTVYLQMNSLKPEDTAVYYCNAVSRDKSLYDYWGQGTQVTVSS | high polyreactivity |
| QVQLVESGGGLVQAGGSLRLSCAASGRIFTFYAMGWYRQAPGKARELVASITGGGNTYYADSVKGRFTISRDNAKNTVYLQMNSLKPEDTAVYYCNADEWRWDEIIPYAVDYWGQGTQVTVSS | low polyreactivity |
| QVQLVESGGGLVQAGGSLRLSCAASGSTFFEYAMGWYRQAPGKVREFVAGISWSGGITYYADSVKGRFTISRDNAKNTVYLQMNSLKPEDTAVYYCATAGGDWYGVDYWGQGTQVTVSS | low polyreactivity |
| QVQLEESGGGLVQAGGSLRLSCAASGRIFYAYGIGWYRQAPVKERELVAAISSGDSTNYADSVKGRFTISRDNAKNTVYFQMNSLKPEDTAVYYCAKDGSPLQLTDPTHDYEYWGQGTQVTVSS | low polyreactivity |
